The reported numbers originate from patent US8168651B2.

biological target: recombinant human PIM1 (Homo sapiens (Human)); assay: PIM-1 kinase activity in cell-free in vitro assay; format: biochemical; conditions: 500 nM compound, cell-free assay; read-out: PIM-1: % inh 500 nM
Label 1 when inhibition at 0.5 µM is at or above 30%; anything below gets 0.

- compound: "Fc1ccc(Nc2nc3cc(-c4nnn[nH]4)ccc3c3ccsc23)cc1"
  assigned label: 1
- compound: "N#Cc1ccc2c(c1)nc(OCc1ccccc1)c1ccsc12"
  assigned label: 0
- compound: "CN(c1ccccc1)c1nc2cc(C(=O)O)ccc2c2cnc(NC3CC3)nc12"
  assigned label: 1
- compound: "CCN1CCCC1CNc1nc2cc(-c3nnn[nH]3)ccc2c2cscc12 (centres unmarked)"
  assigned label: 1
- compound: "CC(=O)Nc1cccc(Nc2nc3cc(C(=O)O)ccc3c3cnccc23)c1"
  assigned label: 1

Task item: Record `CN(C)CCCN(C)c1nc2cc(-c3nnn[nH]3)ccc2c2sccc12` ; criterion: inhibition at 0.5 µM no lower than 30%. Met?
Reply: 1

Task item: Hi team, for `Cc1noc(C)c1NC(=O)NCc1ccc2c(c1)nc(Nc1cccc(F)c1)c1ccsc12` , is the recorded inhibition at 0.5 µM at or above 30%?
Reply: 0

Task item: Given the entry `O=C(O)c1ccc2c(c1)nc(N1CCc3ccccc31)c1ccncc12` , answer whether its inhibition at 0.5 µM meets or surpasses 30%.
Reply: 0

Task item: Hi, just wondering whether `CN(c1nc2cc(C#N)ccc2c2sccc12)C(C1CC1)C1CC1` shows inhibition at 0.5 µM of 30% or higher.
Reply: 0

Task item: Confirm if inhibition at 0.5 µM reported for the compound `CC(=O)c1ccc(Oc2nc3cc(C#N)ccc3c3sccc23)cc1` is 30% or above.
Reply: 0

Task item: Is the recorded value of inhibition at 0.5 µM equal to or greater than 30% for this compound? `N#Cc1ccc2c(c1)nc(N1CCN(CCO)CC1)c1ccsc12`
Reply: 0

Task item: Is reported inhibition at 0.5 µM greater than or equal to 30% here: `Cc1ccc(Nc2nc3cc(C(=O)O)ccc3c3cnccc23)nc1`
Reply: 1

Task item: Tell me whether inhibition at 0.5 µM is at least 30% here: `COC(=O)c1ccc2c(c1)nc(NN)c1ccncc12`
Reply: 0

Task item: Does the compound `O=C(O)c1ccc2c(c1)nc(NC1CC1)c1nc(Nc3ccc(F)c(F)c3)ncc12` have recorded inhibition at 0.5 µM that is 30% or more?
Reply: 0

====

molecular target: recombinant human PIM1 (Homo sapiens (Human), UniProt P11309); assay: PIM-1 kinase activity in cell-free in vitro assay; type: biochemical; details: 500 nM compound, cell-free; read-out: PIM-1: % inh 500 nM
Sequence (P11309 whole entry): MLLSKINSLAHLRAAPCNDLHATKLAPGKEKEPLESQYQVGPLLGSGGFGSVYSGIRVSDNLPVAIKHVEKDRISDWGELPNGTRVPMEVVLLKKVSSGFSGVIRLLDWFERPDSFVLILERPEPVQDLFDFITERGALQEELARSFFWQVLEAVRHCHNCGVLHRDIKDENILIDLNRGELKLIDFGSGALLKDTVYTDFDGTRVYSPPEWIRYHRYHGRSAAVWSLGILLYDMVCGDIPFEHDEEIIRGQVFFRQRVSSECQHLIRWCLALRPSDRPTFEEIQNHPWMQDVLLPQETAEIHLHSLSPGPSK
property: inhibition at 0.5 µM (%)
Numeric answer only, unit % assumed.

- input smiles: "COC(=O)c1ccc2c(c1)nc(Nc1ccccc1)c1nc(SC)ncc12"
  result units: "%"
  inhibition at 0.5 µM: -26.7
- input smiles: "O=C(O)c1ccc2c(c1)nc(Nc1ccccc1O)c1ccsc12"
  result units: "%"
  inhibition at 0.5 µM: -3.12
- input smiles: "Clc1cccc(Nc2nc3cc(-c4nnn[nH]4)ccc3c3cnccc23)c1"
  result units: "%"
  inhibition at 0.5 µM: 48.6
- input smiles: "O=C(O)c1ccc2c(c1)nc(Nc1cccc(F)c1F)c1ccsc12"
  result units: "%"
  inhibition at 0.5 µM: 72.9
- input smiles: "c1cc2c(Nc3ccc4c(c3)OCO4)nc3cc(-c4nnn[nH]4)ccc3c2s1"
  result units: "%"
  inhibition at 0.5 µM: 18
- input smiles: "N#Cc1ccc2c(c1)nc(OCCCO)c1ccccc12"
  result units: "%"
  inhibition at 0.5 µM: 3.04
- input smiles: "Cc1cccc(Nc2nc3cc(C(=O)O)ccc3c3sccc23)c1"
  result units: "%"
  inhibition at 0.5 µM: 59.1
- input smiles: "COc1ccccc1Nc1nc2cc(C(=O)O)ccc2c2sccc12"
  result units: "%"
  inhibition at 0.5 µM: 0.445

Task item: Report inhibition at 0.5 µM, nothing else, for this compound: `CCOc1cccc(Nc2nc3cc(-c4nnn[nH]4)ccc3c3sccc23)c1`
Reply: 57.7

Task item: Quickly give me recorded inhibition at 0.5 µM for `Fc1cc(F)cc(Nc2nc3cc(-c4nnn[nH]4)ccc3c3sccc23)c1`
Reply: 86.9

Task item: Supply inhibition at 0.5 µM value. Item: `FC(F)(F)c1cc(Nc2nc3cc(-c4nnn[nH]4)ccc3c3sccc23)ccc1Cl`
Reply: -46.4

====

target: recombinant human PIM1 (Homo sapiens (Human)); assay: PIM-1 kinase activity in cell-free in vitro assay; assay type: biochemical; conditions: 500 nM compound, cell-free assay; read-out: PIM-1: % inh 500 nM
property: inhibition at 0.5 µM (%)
Give just the number in %; leave the unit off.

Task item: Give me measured inhibition at 0.5 µM, please, for this compound: CN1CCCC1CNc1nc2cc(C#N)ccc2c2sccc12 (stereo not shown)
Reply: 8.14

Task item: For the compound `C#Cc1cccc(Nc2nc3cc(C(=O)OC)ccc3c3cnc(NOC)nc23)c1` , give its measured inhibition at 0.5 µM value.
Reply: 0.371

Task item: Identify measured inhibition at 0.5 µM associated with `Cc1ccccc1Nc1nc2cc(C(=O)NC3CC3)ccc2c2cnc(NC3CC3)nc12`
Reply: 5.72

Task item: Report measured inhibition at 0.5 µM; entry is `O=C(O)c1ccc2c(c1)nc(Nc1ccccc1)c1cnccc12`
Reply: -22.8

Task item: Read off the recorded inhibition at 0.5 µM for `CC(=O)N1CCN(C(=O)c2ccc3c(c2)nc(Nc2cccc(Cl)c2)c2ccncc23)CC1`
Reply: -5.01

Task item: Using known records, supply inhibition at 0.5 µM for `COCCNC(=O)c1ccc2c(c1)nc(NC1CC1)c1nc(NC3CC3)ncc12`
Reply: -16.1

Task item: Give the value of inhibition at 0.5 µM reported for the following: `O=C(O)c1ccc2c(c1)nc(Nc1ccc(Cl)c(C(F)(F)F)c1)c1ccncc12`
Reply: 73.6

Task item: Provide inhibition at 0.5 µM value for the following compound: `O=C(O)c1ccc2c(c1)nc(NC1CC1)c1nc(Nc3cccc(C(F)(F)F)c3)ncc12`
Reply: 44.2

Task item: Using the record for `NC(=O)c1cc(F)cc(Nc2nc3cc(C(=O)O)ccc3c3cnccc23)c1` , state its measured inhibition at 0.5 µM.
Reply: 85

Task item: Look up and report measured inhibition at 0.5 µM for this entry: `Fc1cc(Cl)cc(Nc2nc3cc(-c4nnn[nH]4)ccc3c3ccsc23)c1`
Reply: 22.9

Task item: Please indicate inhibition at 0.5 µM recorded for `O=c1[nH]c2ccc(OC(F)(F)F)cc2c2cnccc12`
Reply: 9.09

====

tested on: Jurkat; assay: Cell proliferation modulatory activity, Jurkat; type: cell-based; conditions: Homo sapiens
# IC50 values compiled below
# number only, unit µM dropped from output

Task item: Please give the documented IC50 of O=C(O)c1ccc2c(c1)nc(NC1CC1)c1nc(NCc3ccccc3)ncc12 [drawing 1617]
Reply: 8.82

Task item: Consider the compound `Cc1c(-c2cc(Nc3nc4cc(C(=O)O)ccc4c4cnccc34)n(C)n2)sc2ccc(Cl)cc12` and give its recorded IC50.
Reply: 19.6

Task item: Given CC(Nc1ncc2c(n1)c(NC1CC1)nc1cc(C(=O)O)ccc12)c1ccccc1 (centres unmarked) , respond with its IC50.
Reply: 28.7

Task item: Could you please provide reported IC50 for `O=C(O)c1ccc2c(c1)nc(NC1CC1)c1nc(NCc3ccncc3)ncc12` ? Thanks!
Reply: 35.6

Task item: Using known records, supply IC50 for `Nc1ncc2c(n1)c(Nc1cccc(Cl)c1)nc1cc(C(=O)O)ccc12`
Reply: 1.14

====

tested on: LNCaP; assay: Cell-proliferation assay using Alamar Blue dye; type: cell-based; conditions: Homo sapiens
property: IC50
State the value with its unit after it.

Take a look at these entries with their results.
- compound: "O=C(O)c1ccc2c(c1)nc(NCCc1cccc(Cl)c1)c1ccncc12 [drawing 1001]"
  assay target: "LNCaP"
  measurement: "13.9 µM"
- compound: "O=C(O)c1ccc2c(c1)nc(NCCc1cccc(F)c1)c1ccncc12 [drawing 1002]"
  assay target: "LNCaP"
  measurement: "10.3 µM"
- compound: "O=C(O)c1ccc2c(c1)nc(NCCc1ccccc1)c1ccncc12 [drawing 988]"
  assay target: "LNCaP"
  measurement: "8.6 µM"

Now for the compound whose IC50 we want.
Task item: Read off the recorded IC50 for O=C(O)c1ccc2c(c1)nc(NCCCc1ccccc1)c1ccncc12 [drawing 1003]
Reply: 10.4 µM

====

biological target: recombinant human PIM1 (Homo sapiens (Human)); assay: PIM-1 kinase activity in cell-free in vitro assay; format: biochemical; details: 500 nM compound, cell-free; read-out: PIM-1: % inh 500 nM
property: inhibition at 0.5 µM (%)
Give the value in % but do not write % after it.

Examples with their reported inhibition at 0.5 µM follow.
- input smiles: "NS(=O)(=O)c1cccc(Nc2nc3cc(C(=O)O)ccc3c3sccc23)c1"
  assay target: "recombinant human PIM1 (Homo sapiens (Human))"
  result units: "%"
  measurement: 21.7
- input smiles: "c1ccc(Nc2nc3cc(-c4nnc[nH]4)ccc3c3sccc23)cc1"
  assay target: "recombinant human PIM1 (Homo sapiens (Human))"
  result units: "%"
  measurement: -3.3
- input smiles: "CN(C)CCNc1nc2cc(-c3nnn[nH]3)ccc2c2ccccc12"
  assay target: "recombinant human PIM1 (Homo sapiens (Human))"
  result units: "%"
  measurement: 56.9
- input smiles: "CC(C)c1cccc(Nc2nc3cc(-c4nnn[nH]4)ccc3c3sccc23)c1"
  assay target: "recombinant human PIM1 (Homo sapiens (Human))"
  result units: "%"
  measurement: 35.9
- input smiles: "O=C(O)c1ccc2c(c1)nc(Nc1cc(F)cc(C(F)(F)F)c1)c1ccsc12"
  assay target: "recombinant human PIM1 (Homo sapiens (Human))"
  result units: "%"
  measurement: 82.6

Task item: Respond only with inhibition at 0.5 µM recorded for `O=C(O)c1ccc2c(c1)nc(Nc1cccc(Cl)c1)c1ccsc12`
Reply: 81.1

Task item: Complete the entry with inhibition at 0.5 µM for `O=C(O)c1ccc2c(c1)nc(Nc1cccc(I)c1)c1ccsc12`
Reply: 40.5

Task item: Specify measured inhibition at 0.5 µM for `c1ccc(COc2ccc(Nc3nc4cc(-c5nnn[nH]5)ccc4c4sccc34)cc2)cc1` .
Reply: 9.03

Task item: # return recorded inhibition at 0.5 µM for entry `COc1ccc(Nc2nc3cc(-c4nnn[nH]4)ccc3c3sccc23)cc1`
Reply: 63

Task item: Find the measured inhibition at 0.5 µM of `CN(C)CCCNc1nc2cc(-c3nnn[nH]3)ccc2c2sccc12` and report it.
Reply: 58.2
